TEST_SUMMARY: Cytotoxicity against MDCK cells after 48 hrs
Type: cell-based, Canis lupus familiaris
RUN_PARAMETERS: dog, read-out: TC50
# satisfied = CC50 at 48 h below 70 µg/mL (exclusive); not satisfied = CC50 at 48 h at/above 70 µg/mL

> print(dat)
                                    compound            cat
 1  C=C(C(=O)OCc1cn(Cc2ccc(C)cc2)nn1)[C@@H]1CC[C@H](C)[C@@H]2CC(=O)C(C)=C2C1  not satisfied
 2  C=C(C(=O)OCc1cn(Cc2ccc(Cl)cc2)nn1)[C@@H]1CC[C@H](C)[C@@H]2CC(=O)C(C)=C2C1      satisfied
 3  C=C(C(=O)NCc1cn(Cc2ccc(F)cc2)nn1)[C@@H]1CC[C@H](C)[C@@H]2CC(=O)C(C)=C2C1  not satisfied
 4  C=C(C(=O)NCc1cn(Cc2cccc(Cl)c2)nn1)[C@@H]1CC[C@H](C)[C@@H]2CC(=O)C(C)=C2C1      satisfied
 5  CCOC(=O)C1=C[C@@H](OC(CC)CC)[C@H](NC(C)=O)[C@@H](N)C1  not satisfied
 6  C=C(C(=O)NCc1cn(Cc2cccc(OC)c2)nn1)[C@@H]1CC[C@H](C)[C@@H]2CC(=O)C(C)=C2C1      satisfied
 7  C=C(C(=O)OCc1cn(Cc2ccccc2Cl)nn1)[C@@H]1CC[C@H](C)[C@@H]2CC(=O)C(C)=C2C1  not satisfied
 8  C=C(C(=O)NCc1cn(Cc2ccc(OC)cc2)nn1)[C@@H]1CC[C@H](C)[C@@H]2CC(=O)C(C)=C2C1  not satisfied
 9  C=C(C(=O)OCc1cn(Cc2cccc(F)c2)nn1)[C@@H]1CC[C@H](C)[C@@H]2CC(=O)C(C)=C2C1  not satisfied
10  C=C(C(=O)OCc1cn(Cc2ccccc2)nn1)[C@@H]1CC[C@H](C)[C@@H]2CC(=O)C(C)=C2C1      satisfied
11  C=C(C(=O)NCc1cn(Cc2cccc(F)c2)nn1)[C@@H]1CC[C@H](C)[C@@H]2CC(=O)C(C)=C2C1      satisfied
12  C=C(C(=O)O)[C@@H]1CC[C@H](C)[C@@H]2CC(=O)C(C)=C2C1  not satisfied
13  C=C(C(=O)OCc1cn(Cc2ccccc2C)nn1)[C@@H]1CC[C@H](C)[C@@H]2CC(=O)C(C)=C2C1      satisfied
14  C=C(C(=O)NCc1cn(Cc2ccccc2C)nn1)[C@@H]1CC[C@H](C)[C@@H]2CC(=O)C(C)=C2C1      satisfied
15  C=C(C(=O)OCc1cn(Cc2cccc(C)c2)nn1)[C@@H]1CC[C@H](C)[C@@H]2CC(=O)C(C)=C2C1      satisfied
16  C=C(C(=O)OCc1cn(C2CCCCC2)nn1)[C@@H]1CC[C@H](C)[C@@H]2CC(=O)C(C)=C2C1  not satisfied
17  C=C(C(=O)OCc1cn(Cc2ccccc2F)nn1)[C@@H]1CC[C@H](C)[C@@H]2CC(=O)C(C)=C2C1      satisfied
18  C=C(C(=O)NCc1cn(Cc2ccccc2F)nn1)[C@@H]1CC[C@H](C)[C@@H]2CC(=O)C(C)=C2C1  not satisfied
19  C=C(C(=O)OCc1cn(C2C=CCCC2)nn1)[C@@H]1CC[C@H](C)[C@@H]2CC(=O)C(C)=C2C1 (some centres undefined)      satisfied
20  C=C(C(=O)NCc1cn(C2C=CCCC2)nn1)[C@@H]1CC[C@H](C)[C@@H]2CC(=O)C(C)=C2C1 (some centres undefined)  not satisfied
21  C=C(C(=O)NCc1cn(Cc2ccc(C)cc2)nn1)[C@@H]1CC[C@H](C)[C@@H]2CC(=O)C(C)=C2C1  not satisfied
22  C=C(C(=O)NCc1cn(Cc2ccc(Cl)cc2)nn1)[C@@H]1CC[C@H](C)[C@@H]2CC(=O)C(C)=C2C1      satisfied
23  C=C(C(=O)OCc1cn(Cc2ccc(Cl)c(Cl)c2)nn1)[C@@H]1CC[C@H](C)[C@@H]2CC(=O)C(C)=C2C1      satisfied
24  C=C(C(=O)NCc1cn(Cc2ccc(Cl)c(Cl)c2)nn1)[C@@H]1CC[C@H](C)[C@@H]2CC(=O)C(C)=C2C1      satisfied

---

TEST_SUMMARY: Selectivity index, ratio of TC50 for MDCK cells to IC50 for Influenza A virus (A/Tianjinjinnan/15/2009/H1N1)
Type: toxicity, cell-based
RUN_PARAMETERS: dog, read-out: Selectivity Index
Returns one of criterion met or criterion not met; criterion met when selectivity ratio is >= 2.

> print(dat)
                                   compound                cat
1  C=C(C(=O)OCc1cn(Cc2ccc(OC)cc2)nn1)[C@@H]1CC[C@H](C)[C@@H]2CC(=O)C(C)=C2C1      criterion met
2  C=C(C(=O)O)[C@@H]1CC[C@H](C)[C@@H]2CC(=O)C(C)=C2C1      criterion met
3  C=C(C(=O)NCc1cn(C2C=CCCC2)nn1)[C@@H]1CC[C@H](C)[C@@H]2CC(=O)C(C)=C2C1 (some centres undefined)      criterion met
4  C=C(C(=O)NCc1cn(C2CCCCC2)nn1)[C@@H]1CC[C@H](C)[C@@H]2CC(=O)C(C)=C2C1  criterion not met
5  NC(=O)c1ncn([C@@H]2O[C@H](CO)[C@@H](O)[C@H]2O)n1      criterion met
6  C=C(C(=O)NCc1cn(Cc2ccc(Cl)c(Cl)c2)nn1)[C@@H]1CC[C@H](C)[C@@H]2CC(=O)C(C)=C2C1      criterion met

---

Test system: Influenza A virus
TEST_SUMMARY: Antiviral activity against Influenza A virus (A/FM/1/1947(H1N1)) infected in MDCK cells assessed as inhibition of virus-induced cytopathicity after 40 hrs
Assay type: functional, organism-based
RUN_PARAMETERS: A/Fort Monmouth/1/1947(H1N1)
// bucketize IC50: low = under 10 µg/mL, mid = from 10 µg/mL up to 20 µg/mL, high = 20 µg/mL and over

> print(dat)
                                    molecule   cat
 1  C=C(C(=O)O)[C@@H]1CC[C@H](C)[C@@H]2CC(=O)C(C)=C2C1 [PECHUELOIC ACID]  high
 2  C=C(C(=O)OCc1cn(Cc2cccc(Cl)c2)nn1)[C@@H]1CC[C@H](C)[C@@H]2CC(=O)C(C)=C2C1  high
 3  C=C(C(=O)NCc1cn(Cc2ccccc2F)nn1)[C@@H]1CC[C@H](C)[C@@H]2CC(=O)C(C)=C2C1  high
 4  C=C(C(=O)OCc1cn(Cc2cccc(OC)c2)nn1)[C@@H]1CC[C@H](C)[C@@H]2CC(=O)C(C)=C2C1  high
 5  C=C(C(=O)OCc1cn(Cc2ccc(C)cc2)nn1)[C@@H]1CC[C@H](C)[C@@H]2CC(=O)C(C)=C2C1  high
 6  C=C(C(=O)NCc1cn(Cc2ccc(F)cc2)nn1)[C@@H]1CC[C@H](C)[C@@H]2CC(=O)C(C)=C2C1  high
 7  C=C(C(=O)OCc1cn(Cc2cccc(C)c2)nn1)[C@@H]1CC[C@H](C)[C@@H]2CC(=O)C(C)=C2C1   mid
 8  C=C(C(=O)NCc1cn(Cc2cccc(OC)c2)nn1)[C@@H]1CC[C@H](C)[C@@H]2CC(=O)C(C)=C2C1   mid
 9  C=C(C(=O)NCc1cn(Cc2ccc(OC)cc2)nn1)[C@@H]1CC[C@H](C)[C@@H]2CC(=O)C(C)=C2C1   mid
10  C=C(C(=O)NCc1cn(Cc2ccccc2)nn1)[C@@H]1CC[C@H](C)[C@@H]2CC(=O)C(C)=C2C1   mid
11  C=C(C(=O)NCc1cn(Cc2cccc(C)c2)nn1)[C@@H]1CC[C@H](C)[C@@H]2CC(=O)C(C)=C2C1  high
12  CCOC(=O)C1=C[C@@H](OC(CC)CC)[C@H](NC(C)=O)[C@@H](N)C1 [OSELTAMIVIR]   low
13  C=C(C(=O)OCc1cn(C2C=CCCC2)nn1)[C@@H]1CC[C@H](C)[C@@H]2CC(=O)C(C)=C2C1 (stereo not given in full)   low
14  C=C(C(=O)OCc1cn(Cc2ccccc2F)nn1)[C@@H]1CC[C@H](C)[C@@H]2CC(=O)C(C)=C2C1  high
15  C=C(C(=O)OCc1cn(Cc2ccc(F)cc2)nn1)[C@@H]1CC[C@H](C)[C@@H]2CC(=O)C(C)=C2C1  high
16  C=C(C(=O)OCc1cn(C2CCCCC2)nn1)[C@@H]1CC[C@H](C)[C@@H]2CC(=O)C(C)=C2C1  high
17  C=C(C(=O)NCc1cn(Cc2cccc(F)c2)nn1)[C@@H]1CC[C@H](C)[C@@H]2CC(=O)C(C)=C2C1  high
18  C=C(C(=O)OCc1cn(Cc2ccc(Cl)cc2)nn1)[C@@H]1CC[C@H](C)[C@@H]2CC(=O)C(C)=C2C1  high
19  NC(=O)c1ncn([C@@H]2O[C@H](CO)[C@@H](O)[C@H]2O)n1 [RIBAVIRIN]   low
